Method summary: Pharmacokinetics in monkeys after SC and IV administration
Measurement conditions: monkey, in vivo; monkeys, SC 0.1 mg/kg; read-out: BA (bioavailability)
Where a SMILES comes first, the peptide text is derived from it. [ ]: non-standard residue; d: D form. Arg(Me) = CNC(=N)NCCC[C@H](N)C(=O)O; Hyp = O=C(O)[C@@H]1C[C@@H](O)CN1; azaGly = NNC(=O)O
Readout label: bioavailability (%)
Could you give me the number in %? Just the number is fine.

I would be grateful if you could share the reported bioavailability for CC(=O)O.CNC(=N)NCCC[C@H](NC(=O)[C@H](CC(C)C)NC(=O)NNC(=O)[C@H](Cc1ccccc1)NC(=O)[C@@H](NC(=O)[C@H](CC(N)=O)NC(=O)[C@@H]1C[C@@H](O)CN1C(=O)[C@@H](Cc1ccc(O)cc1)NC(C)=O)[C@@H](C)O)C(=O)N[C@@H](Cc1c[nH]c2ccccc12)C(N)=O [API-MA] (Ac-[dY][Hyp]NTF[azaGly]L[Arg(Me)]W-NH2) .
94.9

====

Method summary: Single dose PK, phase 1, healthy European men
Format: in vivo, human
Measurement conditions: male, human, plasma, single SC 0.1 mg, geometric mean
Where a SMILES comes first, the peptide text is derived from it. [ ]: non-standard residue; d: D form. Arg(Me) = CNC(=N)NCCC[C@H](N)C(=O)O; Hyp = O=C(O)[C@@H]1C[C@@H](O)CN1; azaGly = NNC(=O)O
Readout label: AUC(0-inf) (ng·h/mL)
Could you give me the number in ng·h/mL? Just the number is fine.

I would be grateful if you could share the reported AUC(0-inf) for CC(=O)O.CNC(=N)NCCC[C@H](NC(=O)[C@H](CC(C)C)NC(=O)NNC(=O)[C@H](Cc1ccccc1)NC(=O)[C@@H](NC(=O)[C@H](CC(N)=O)NC(=O)[C@@H]1C[C@@H](O)CN1C(=O)[C@@H](Cc1ccc(O)cc1)NC(C)=O)[C@@H](C)O)C(=O)N[C@@H](Cc1c[nH]c2ccccc12)C(N)=O [API-MA] (Ac-[dY][Hyp]NTF[azaGly]L[Arg(Me)]W-NH2) .
3.94

====

Method summary: Single dose PK, phase 1, healthy European men
Assay type: in vivo, human
Measurement conditions: male, human, plasma, single SC 0.1 mg, geometric mean
Where a SMILES comes first, the peptide text is derived from it. [ ]: non-standard residue; d: D form. Arg(Me) = CNC(=N)NCCC[C@H](N)C(=O)O; Hyp = O=C(O)[C@@H]1C[C@@H](O)CN1; azaGly = NNC(=O)O
Readout label: Cmax (ng/mL)
Could you give me the number in ng/mL? Just the number is fine.

I would be grateful if you could share the reported Cmax for CC(=O)O.CNC(=N)NCCC[C@H](NC(=O)[C@H](CC(C)C)NC(=O)NNC(=O)[C@H](Cc1ccccc1)NC(=O)[C@@H](NC(=O)[C@H](CC(N)=O)NC(=O)[C@@H]1C[C@@H](O)CN1C(=O)[C@@H](Cc1ccc(O)cc1)NC(C)=O)[C@@H](C)O)C(=O)N[C@@H](Cc1c[nH]c2ccccc12)C(N)=O [API-MA] (Ac-[dY][Hyp]NTF[azaGly]L[Arg(Me)]W-NH2) .
1.38

====

Method summary: Multiple-dose PK, 2-hour SC infusion once daily for 14 days, Japanese prostate cancer patients
Format: in vivo, human
Measurement conditions: male, human, in vivo, sc, 0.5 mg/day, Japanese prostate cancer patients, 2-hour SC infusion 0.5 mg/day, Day 14, mean
Method: It was an open-label, ascending dose study of API-MA administered via 2-hour SC infusion once daily for 14 days that was expected to suppress testosterone in Japanese hormone-naïve prostate cancer patients. Six patients received API-MA at doses of 0.5 mg (3 patients) and 1.0 mg (3 patients) a day for 14 days. […]
Where a SMILES comes first, the peptide text is derived from it. [ ]: non-standard residue; d: D form. Arg(Me) = CNC(=N)NCCC[C@H](N)C(=O)O; Hyp = O=C(O)[C@@H]1C[C@@H](O)CN1; azaGly = NNC(=O)O
Readout label: Tmax (h)
Could you give me the number in h? Just the number is fine.

I would be grateful if you could share the reported Tmax for CC(=O)O.CNC(=N)NCCC[C@H](NC(=O)[C@H](CC(C)C)NC(=O)NNC(=O)[C@H](Cc1ccccc1)NC(=O)[C@@H](NC(=O)[C@H](CC(N)=O)NC(=O)[C@@H]1C[C@@H](O)CN1C(=O)[C@@H](Cc1ccc(O)cc1)NC(C)=O)[C@@H](C)O)C(=O)N[C@@H](Cc1c[nH]c2ccccc12)C(N)=O [API-MA] (Ac-[dY][Hyp]NTF[azaGly]L[Arg(Me)]W-NH2) .
2.08

====

Method summary: Multiple-dose PK, 2-hour SC infusion once daily for 14 days, Japanese prostate cancer patients
Type: in vivo, human
Measurement conditions: male, human, in vivo, sc, 0.5 mg/day, Japanese prostate cancer patients, 2-hour SC infusion 0.5 mg/day, Day 1, mean; read-out: AUC (0-tau)
Where a SMILES comes first, the peptide text is derived from it. [ ]: non-standard residue; d: D form. Arg(Me) = CNC(=N)NCCC[C@H](N)C(=O)O; Hyp = O=C(O)[C@@H]1C[C@@H](O)CN1; azaGly = NNC(=O)O
Readout label: AUC (ng·h/mL)
Could you give me the number in ng·h/mL? Just the number is fine.

I would be grateful if you could share the reported AUC for CC(=O)O.CNC(=N)NCCC[C@H](NC(=O)[C@H](CC(C)C)NC(=O)NNC(=O)[C@H](Cc1ccccc1)NC(=O)[C@@H](NC(=O)[C@H](CC(N)=O)NC(=O)[C@@H]1C[C@@H](O)CN1C(=O)[C@@H](Cc1ccc(O)cc1)NC(C)=O)[C@@H](C)O)C(=O)N[C@@H](Cc1c[nH]c2ccccc12)C(N)=O [API-MA] (Ac-[dY][Hyp]NTF[azaGly]L[Arg(Me)]W-NH2) .
36.5

====

Method summary: Pharmacokinetics in dogs after SC and IV administration
Measurement conditions: dog, in vivo, iv, 1 mg/kg
Where a SMILES comes first, the peptide text is derived from it. [ ]: non-standard residue; d: D form. Arg(Me) = CNC(=N)NCCC[C@H](N)C(=O)O; Hyp = O=C(O)[C@@H]1C[C@@H](O)CN1; azaGly = NNC(=O)O
Readout label: Cmax at 5 min (ng/mL)
Could you give me the number in ng/mL? Just the number is fine.

I would be grateful if you could share the reported Cmax at 5 min for CNC(=N)NCCC[C@H](NC(=O)[C@H](CC(C)C)NC(=O)NNC(=O)[C@H](Cc1ccccc1)NC(=O)[C@@H](NC(=O)[C@H](CC(N)=O)NC(=O)[C@@H]1C[C@@H](O)CN1C(=O)[C@@H](Cc1ccc(O)cc1)NC(C)=O)[C@@H](C)O)C(=O)N[C@@H](Cc1c[nH]c2ccccc12)C(N)=O [Compound 1] (Ac-[dY][Hyp]NTF[azaGly]L[Arg(Me)]W-NH2) .
4250

====

Method summary: Pharmacokinetics in dogs after SC and IV administration
Measurement conditions: dog, in vivo, sc, 0.1 mg/kg
Excerpt: The PK of API-MA was studied in dogs after SC and IV administration.
Where a SMILES comes first, the peptide text is derived from it. [ ]: non-standard residue; d: D form. Arg(Me) = CNC(=N)NCCC[C@H](N)C(=O)O; Hyp = O=C(O)[C@@H]1C[C@@H](O)CN1; azaGly = NNC(=O)O
Readout label: AUC(0-t) (ng·h/mL)
Could you give me the number in ng·h/mL? Just the number is fine.

I would be grateful if you could share the reported AUC(0-t) for CNC(=N)NCCC[C@H](NC(=O)[C@H](CC(C)C)NC(=O)NNC(=O)[C@H](Cc1ccccc1)NC(=O)[C@@H](NC(=O)[C@H](CC(N)=O)NC(=O)[C@@H]1C[C@@H](O)CN1C(=O)[C@@H](Cc1ccc(O)cc1)NC(C)=O)[C@@H](C)O)C(=O)N[C@@H](Cc1c[nH]c2ccccc12)C(N)=O [Compound 1] (Ac-[dY][Hyp]NTF[azaGly]L[Arg(Me)]W-NH2) .
252

====

Method summary: Single dose PK, phase 1, healthy Japanese men
Assay type: in vivo, human
Measurement conditions: male, human, plasma, sc, 0.5 mg, single SC bolus 0.5 mg, mean
Where a SMILES comes first, the peptide text is derived from it. [ ]: non-standard residue; d: D form. Arg(Me) = CNC(=N)NCCC[C@H](N)C(=O)O; Hyp = O=C(O)[C@@H]1C[C@@H](O)CN1; azaGly = NNC(=O)O
Readout label: Cmax
Please answer using a numeric value trailed by its unit.

I would be grateful if you could share the reported Cmax for CC(=O)O.CNC(=N)NCCC[C@H](NC(=O)[C@H](CC(C)C)NC(=O)NNC(=O)[C@H](Cc1ccccc1)NC(=O)[C@@H](NC(=O)[C@H](CC(N)=O)NC(=O)[C@@H]1C[C@@H](O)CN1C(=O)[C@@H](Cc1ccc(O)cc1)NC(C)=O)[C@@H](C)O)C(=O)N[C@@H](Cc1c[nH]c2ccccc12)C(N)=O [API-MA] (Ac-[dY][Hyp]NTF[azaGly]L[Arg(Me)]W-NH2) .
9.05 ng/mL
